METHOD_DESCRIPTION: Pharmacokinetic study in dogs
Type: in vivo, male Beagle dog
MEASUREMENT_SETUP: male, beagle, plasma; dog, IV 1 mg/kg
MEASURE: MRT inf (min)

>>> value_reported("CCN(CC)C(=O)C(c1ccccc1)N1CCN(c2ccc(NC(=O)c3ccccc3-c3cccnc3)cc2F)CC1 (racemic) [Cmpd (A)]")
36.6

====

METHOD_DESCRIPTION: Pharmacokinetic study in dogs
Assay type: in vivo, male Beagle dog
MEASUREMENT_SETUP: male, beagle, dog, plasma, iv, 1 mg/kg, IV 1 mg/kg, read-out: Vz
Procedure: Male Beagle Canines 11-15 kilograms in body weight were used. Three animals received a bolus oral dose of the compound via an oral gavage at a dose of 5 mg/kg. Three animals received a bolus intravenous dose of the compound at a dose of 1 mg/kg in the right cephalic vein. […] These samples were analyzed by LC-MS/MS. The LC-MS/MS data was analyzed using a non-compartmental model with the software package WinNonlin Version 4.0.1 (Pharsight, Palo Alto, Calif.). […]
MEASURE: Vd (L/kg)

>>> value_reported("CCN(CC)C(=O)C(c1ccccc1)N1CCN(c2ccc(NC(=O)c3ccccc3-c3cccnc3)cc2F)CC1 (racemic)")
0.64
